Source: PubChem BioAssay (NCI)

Experimental protocol: NCI Yeast Anticancer Drug Screen. Data for the mec2-1 strain (AID 157)
Condition label: S. cerevisiae mec2-1 strain, at 50.0 µM, hits give high values
This is part of a sample that, as a whole, favours compounds with a hit. Of some 79,000 tested, about 15% had one in any assay.
Parameter: growth inhibition (%)
One number for each entry, in %.

Recorded growth inhibition, per entry:
{"Compound": "N#Cc1ccc(/C=C/C(=O)c2ccccc2)cc1", "growth inhibition (%)": -20.1}
{"Compound": "CCSCN1CCN(CSCC)CC1", "growth inhibition (%)": 1.15}
{"Compound": "CCOC(=O)CCc1c[nH]c2ccccc12", "growth inhibition (%)": -17.1}

# map each compound to its growth inhibition
1. Cc1[nH]c(=O)n2c(C)nnc2c1C(=O)O
2. COc1ccccc1NC(=O)C1=C(C)NC(C)=C(C(=O)Nc2ccccc2OC)C1c1cccc2ccccc12
3. CSc1nc(N)c(N)c(N)n1
4. CC1(CO)CCCC1NCCNC1CCCC1(C)CO (stereo not given)
5. N#CCCCCCCC(N)=O
6. O=C(c1ccc(Cl)cc1)C(C(c1ccccc1[N+](=O)[O-])N1CCCCC1)N1CCCCC1 (stereo not given)
7. O=C1Nc2ccccc2/C1=N/N=P(c1ccccc1)(c1ccccc1)c1ccccc1
8. COC(=O)CCC(=O)CN1C(=O)c2ccccc2C1=O

RESULT:
[-4.15, -2.35, 2.9, -6.7, -0.9, -0.3, 0.35, 9.1]

Each compound below has a reported value. Please supply its growth inhibition.
1. O/N=C1/CCCCC1NO (stereo not given)
2. NNC(=Nc1ccccc1)SCc1ccccc1
3. CC(C)(C)CC(C)(C(=O)O)C(C)(C)C (stereo not given)
4. Clc1cc(Br)c2c(Cl)ccnc2c1Br
5. CCCCCCCC/C=C/CCCCCCCC(=O)N(CCOC(=O)C(C)(C)C)CCOC(=O)C(C)(C)C
6. CCOc1cc(/C=N/NC(=O)N(c2ccccc2)c2ccccc2)ccc1O

RESULT:
[-22.9, 0.5, 9.25, -1.3, 9.5, -8.6]

Each compound below has a reported value. Please supply its growth inhibition.
1. C/C(=C\c1ccccc1)C(O)C(=O)c1nc2ccc([N+](=O)[O-])cc2[nH]c1=O (stereo not given)
2. O=CNc1ccc(F)c(F)c1
3. Cc1c(C)c(C)c2cc3c(C)c(C)c(C)c(C)c3cc2c1C

RESULT:
1. -33.1
2. -16.4
3. -1.9

Can you give me growth inhibition for all of these, one by one?
1. C[N+](C)(CCNCC(N)=O)CC(N)=O
2. CC(C)(C)CC(C)(C)N1CNC(=S)NC1

RESULT:
1. -4.2
2. -1.95

List reported growth inhibition for each of these compounds:
1. CC(=O)N[N+](C)(C)C
2. CC(C)(C)c1ccc(N)cc1
3. O=C(O)c1c2c(nc3ccccc13)Cc1ccccc1-2
4. COC(=O)c1ccccc1N=NNc1ccc(C(F)(F)F)c([N+](=O)[O-])c1
5. [O-][N+]1=C(c2ccccc2)C(c2ccccc2)C(c2ccccc2)O1 (stereo not given)
6. Cc1c(C)c2cc3ccc(Cl)cc3nc2c2ccccc12
7. O=C(O)C1CCOCC1

RESULT:
1: -39.2; 2: -29.8; 3: -0.75; 4: -1.85; 5: 1.05; 6: -16.9; 7: 0.7

Required: growth inhibition, one value per compound below.
1. CCN(CC)C(=O)c1cc2c(cc1[N+](=O)[O-])OCO2
2. Cc1n[n+](Cc2ccccc2)c2sc(N)nn12
3. CC(=O)n1cc(CS)c(=O)[nH]c1=O
4. CC1C[C@]2(C)C(=NCCN)Nc3ccccc3[C@@H]2N(C)c2ccccc21 (stereo not given in full)

RESULT:
-15.4
6.25
1.2
-25.6

Provide growth inhibition values for the following items, in order.
1. C1=C[CH]([Sn]([CH]2C=Cc3ccccc32)([CH]2C=Cc3ccccc32)[CH]2C=Cc3ccccc32)c2ccccc21 (stereo not given)
2. O=[N+]([O-])c1ccc(/C=N/C(/N=C/c2ccc([N+](=O)[O-])cc2)c2ccc([N+](=O)[O-])cc2)cc1

RESULT:
[-6.75, -6.25]
